- Target Entity: Carbonic anhydrase (Bos taurus) (UniProt P00921+Q95323+P18915+Q3SZX4)
Returns one of satisfied or not satisfied; satisfied when Log II50 is >= 0.8.

Here's what some known entries look like.
- NS(=O)(=O)c1cccc([N+](=O)[O-])c1: satisfied
- NS(=O)(=O)c1ccc(Cl)cc1: satisfied

## Task Confirm if Log II50 reported for the compound `Cc1cccc(S(N)(=O)=O)c1` is 0.8 or above.
## Result not satisfied

## Task Confirm if Log II50 reported for the compound `COc1ccc(S(N)(=O)=O)cc1` is 0.8 or above.
## Result not satisfied

## Task Confirm if Log II50 reported for the compound `CNc1ccc(S(N)(=O)=O)cc1` is 0.8 or above.
## Result not satisfied

## Task Confirm if Log II50 reported for the compound `NS(=O)(=O)c1ccc([N+](=O)[O-])c(Cl)c1` is 0.8 or above.
## Result satisfied

## Task Confirm if Log II50 reported for the compound `NS(=O)(=O)c1ccccc1` is 0.8 or above.
## Result not satisfied
